// S. aureus, 209p MIC records
Structures can show the parent of a compound that is named as a salt.
Readout type: MIC (µg/mL)

INSERT INTO measurements (compound, display_unit, observed_value) VALUES
  ('Cc1[nH]cnc1CO/N=C(\C(=O)N[C@@H]1C(=O)N2C(C(=O)[O-])=C(C[n+]3ccccc3)CS[C@H]12)c1csc(N)n1 [IF, trihydrochloride]', 'µg/mL', 0.78),
  ('Nc1nc(/C(=N/OCc2c[nH]cn2)C(=O)N[C@@H]2C(=O)N3C(C(=O)[O-])=C(C[n+]4ccccc4)CS[C@H]23)cs1 [IA, trihydrochloride]', 'µg/mL', 0.2),
  ('Cc1cc[n+](CC2=C(C(=O)[O-])N3C(=O)[C@@H](NC(=O)/C(=N\OCc4c[nH]cn4)c4csc(N)n4)[C@H]3SC2)cc1 [IG, trihydrochloride]', 'µg/mL', 1.56),
  ('Nc1nc(/C(=N/OCc2ncc[nH]2)C(=O)N[C@@H]2C(=O)N3C(C(=O)[O-])=C(C[n+]4ccccc4)CS[C@H]23)cs1 [c, reference compound]', 'µg/mL', 1.56),
  ('Cn1nnnc1SCC1=C(C(=O)O)N2C(=O)[C@@H](NC(=O)/C(=N\OCc3c[nH]cn3)c3csc(N)n3)[C@H]2SC1 [ID, dihydrochloride]', 'µg/mL', 0.78),
  ('CC(=O)OCC1=C(C(=O)O)N2C(=O)[C@@H](NC(=O)/C(=N\OCc3c[nH]cn3)c3csc(N)n3)[C@H]2SC1 [IH, dihydrochloride]', 'µg/mL', 0.78);

---

Quick note: these are MIC numbers for system: Ser. marcescens, 10104
Counter-ions that a name gives are not always drawn.
Readout type: MIC (µg/mL)

INSERT INTO assay_data (molecule, observed_value) VALUES
  ('Cc1[nH]cnc1CO/N=C(\C(=O)N[C@@H]1C(=O)N2C(C(=O)[O-])=C(C[n+]3ccccc3)CS[C@H]12)c1csc(N)n1 [IF, trihydrochloride]', 0.2),
  ('Nc1nc(/C(=N/OCc2cn[nH]c2)C(=O)N[C@@H]2C(=O)N3C(C(=O)[O-])=C(C[n+]4ccccc4)CS[C@H]23)cs1 [IE]', 0.2),
  ('CC(=O)OCC1=C(C(=O)O)N2C(=O)[C@@H](NC(=O)/C(=N\OCc3c[nH]cn3)c3csc(N)n3)[C@H]2SC1 [IH, dihydrochloride]', 0.78),
  ('Nc1nc(/C(=N/OCc2nnn[nH]2)C(=O)N[C@@H]2C(=O)N3C(C(=O)[O-])=C(C[n+]4ccccc4)CS[C@H]23)cs1 [b, reference compound]', 0.39),
  ('NC(=O)c1cc[n+](CC2=C(C(=O)[O-])N3C(=O)[C@@H](NC(=O)/C(=N\OCc4c[nH]cn4)c4csc(N)n4)[C@H]3SC2)cc1 [IB, trihydrochloride]', 0.2),
  ('Nc1nc(/C(=N/OCc2cc[nH]n2)C(=O)N[C@@H]2C(=O)N3C(C(=O)[O-])=C(C[n+]4ccccc4)CS[C@H]23)cs1 [IC]', 0.2),
  ('Nc1nc(/C(=N/OCc2ncc[nH]2)C(=O)N[C@@H]2C(=O)N3C(C(=O)[O-])=C(C[n+]4ccccc4)CS[C@H]23)cs1 [c, reference compound]', 0.2),
  ('Nc1nc(/C(=N/OCc2c[nH]cn2)C(=O)N[C@@H]2C(=O)N3C(C(=O)[O-])=C(C[n+]4ccccc4)CS[C@H]23)cs1 [IA, trihydrochloride]', 0.1),
  ('CO/N=C(\C(=O)N[C@@H]1C(=O)N2C(C(=O)O)=C(COC(C)=O)CS[C@H]12)c1csc(N)n1 [a, Cephotaxim, reference compound]', 0.39),
  ('Cn1nnnc1SCC1=C(C(=O)O)N2C(=O)[C@@H](NC(=O)/C(=N\OCc3c[nH]cn3)c3csc(N)n3)[C@H]2SC1 [ID, dihydrochloride]', 0.39),
  ('Cc1cc[n+](CC2=C(C(=O)[O-])N3C(=O)[C@@H](NC(=O)/C(=N\OCc4c[nH]cn4)c4csc(N)n4)[C@H]3SC2)cc1 [IG, trihydrochloride]', 0.1);

Taken from patent US4603198A.
